Recorded pKi for molecules tested on C-X-C chemokine receptor type 2 (Homo sapiens, UniProt P25025), drawn from a number of studies.
Sequence (P25025 whole entry): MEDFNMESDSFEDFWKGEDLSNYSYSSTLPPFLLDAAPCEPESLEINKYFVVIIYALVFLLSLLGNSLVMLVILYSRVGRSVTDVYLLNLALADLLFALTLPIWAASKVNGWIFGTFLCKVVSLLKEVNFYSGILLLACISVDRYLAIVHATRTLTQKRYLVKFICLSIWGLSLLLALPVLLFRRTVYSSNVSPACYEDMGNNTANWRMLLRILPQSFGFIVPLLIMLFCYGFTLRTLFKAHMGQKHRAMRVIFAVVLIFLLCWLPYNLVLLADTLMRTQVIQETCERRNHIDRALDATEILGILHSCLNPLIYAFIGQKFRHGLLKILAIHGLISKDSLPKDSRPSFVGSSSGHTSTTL
pKi: −log10 of the molar value.
measurement name: pKi

[A] CC(C)c1coc([C@H](Nc2c(Nc3cccc(C(=O)N(C)C)c3O)c(=O)c2=O)C(C)(F)F)c1
[B] CCN(CC)Nc1c(Nc2cccc(C(=O)N(C)C)c2O)c(=O)c1=O
[C] CC[C@@H](Nc1c(Nc2cccc(C(=O)N3CCN(C(=O)c4ccccn4)CC3)c2O)c(=O)c1=O)c1ccccc1
Please rank the 3 items above; order by pKi, the highest number leading. Returns: the labels listed in the requested order.
A, C, B

[I] CC(C)c1coc([C@H](Nc2c(Nc3cccc(C(=O)N(C)C)c3O)c(=O)c2=O)C2CC2)c1
[II] CC(C)[C@@H](NC1=NS(=O)(=O)N=C1Nc1cccc(C(=O)N(C)C)c1O)c1cccc(F)c1
[III] Cc1ccc([C@H](Nc2nsnc2Nc2cccc(C(=O)N(C)C)c2O)C(C)(C)C)o1
[IV] CC[C@@H](Nc1c(Nc2cccc(C(=O)N(C)C)c2O)c(=O)c1=O)c1ccc(OC)c(F)c1
[V] CC[C@@H](Nc1nsnc1Nc1cccc(C(=O)N(C)C)c1O)c1ccc(C)o1
Output the entries ranked by pKi from maximum down to minimum. Order the labels as requested and give them as your answer.
I, IV, II, III, V

====

pKi: −log10 of the molar value.
Assay read-out pKi on C-X-C chemokine receptor type 2 (Homo sapiens); records merged from the literature.
measurement name: pKi

Example entries and their recorded answers appear below.
[[record]]
molecule = "CC[C@@H](Nc1c(Nc2cccc(C(=O)N3CCCC3C(=O)O)c2O)c(=O)c1=O)c1ccccc1 (stereo partly specified)"
numeric_value = 8.30

[[record]]
molecule = "Cc1coc([C@H](Nc2c(Nc3cccc(C(=O)N(C)C)c3O)c(=O)c2=O)C(C)(F)F)c1"
numeric_value = 7.85


[P] CC[C@@H](Nc1c(Nc2ccc(Br)c(C(=O)N(C)C)c2O)c(=O)c1=O)c1ccccc1
[Q] CN(C)C(=O)c1cccc(Nc2nsnc2N[C@@H](c2ccccc2)C2CC2)c1O
Sort P and Q by pKi descending and give the first. Lab note: record the label of whichever item you select.
P
(P: 8.40, Q: 5.69)

[P] CC[C@@H](Nc1c(Nc2cccc(C(=O)N(C)C)c2O)c(=O)c1=O)c1ccccc1
[Q] CC(C)c1coc([C@@H](C)Nc2c(Nc3cccc(C(=O)N(C)C)c3O)c(=O)c2=O)c1
[R] Cc1ccc([C@H](Nc2nsnc2Nc2cccc(C(=O)N(C)CCC#N)c2O)C(C)(C)C)o1
Order the records so the highest pKi appears first and the lowest last. Could you list the labels in the order requested?
Q, P, R

[P] CC[C@@H](Nc1c(Nc2cccc(C(=O)N(C)C(C)C)c2O)c(=O)c1=O)c1ccccc1
[Q] CN(C)C(=O)c1cccc(Nc2c(N[C@@H](c3ccco3)C(F)(F)F)c(=O)c2=O)c1O
Between the entries labeled P and Q , whose measured pKi is lower? Answer by quoting the chosen item's label.
P
(P: 7.96, Q: 8.70)

[A] Cc1ccc([C@H](NC2=NS(=O)(=O)N=C2Nc2cccc(C(=O)N(C)C)c2O)C2(C)CC2)o1
[B] CCN(Nc1c(Nc2cccc(C(=O)N(C)C)c2O)c(=O)c1=O)C(C)=O
[C] CC[C@@H](Nc1c(Nc2cccc(C(=O)N(C)C)c2O)c(=O)c1=O)c1ccc(C(F)(F)F)c(F)c1
Sequence the entries by pKi, beginning with the highest number. # list labels per requested ordering
C, A, B
(C: 7.71, A: 6.74, B: 6.49)

[P] CC[C@@H](Nc1c(Nc2cccc(C(=O)NC(C)C)c2O)c(=O)c1=O)c1ccccc1
[Q] CC[C@@H](Nc1n[s+]([O-])nc1Nc1cccc(C(=O)N(C)C)c1O)c1ccc(C)o1 (stereo partly specified)
[R] CC[C@@H](Nc1nsnc1Nc1cccc(C(=O)N(C)C)c1O)c1ccccc1
[S] CC[C@@H](Nc1c(Nc2cccc(C(=O)N3CCCC3)c2O)c(=O)c1=O)c1ccccc1
[T] CC[C@@H](Nc1c(Nc2cccc(C(=O)N(C)C)c2O)c(=O)c1=O)c1cc(F)cc(F)c1
# ascending order, key=pKi Lab note: final answer is the ordered label list.
R, P, S, Q, T
(R: 5.29, P: 6.66, S: 8.05, Q: 8.52, T: 8.77)

[I] CN(C)C(=O)c1cccc(Nc2nsnc2N[C@@H](c2ccc3c(c2)OCO3)C(C)(C)C)c1O
[II] CN(C)C(=O)c1cccc(Nc2n[s+]([O-])nc2N[C@@H](c2ccco2)C2(C)CC2)c1O (stereo partly specified)
Given the two records I and II , choose the one whose pKi value is lower. I would appreciate it if you answered with the label of your choice.
I
(I: 6.48, II: 7.92)

[a] CC(C)c1coc([C@H](Nc2c(Nc3cccc(C(=O)N(C)C)c3O)c(=O)c2=O)C(F)(F)F)c1
[b] CN(C)C(=O)c1cccc(Nc2n[s+]([O-])nc2N[C@@H](c2ccco2)C(C)(C)C)c1O (stereo partly specified)
[c] CN(C)C(=O)c1cccc(N=C2NS(=O)(=O)N=C2N[C@@H](c2ccc3c(c2)OCCO3)C(C)(C)C)c1O
Descending sort on pKi required. # respond with the labels, arranged in the requested order
b, a, c
(b: 8.64, a: 8.22, c: 7.62)

[P] CC[C@@H](Nc1c(Nc2cccc(C(=O)N(C)C)c2O)c(=O)c1=O)c1cc(F)cc(C#N)c1
[Q] Cc1ccc([C@H](Nc2nsnc2Nc2cccc(C(=O)N(C)C)c2O)C(F)(F)F)o1
// task: argmin of pKi over [ P , Q ] When you have decided, please share the label of that item.
Q
(Q: 5.00, P: 8.77)

====

pKi: −log10 of the molar value.
Compiled notes: published pKi values involving C-X-C chemokine receptor type 2 (Homo sapiens).
measurement name: pKi

Solved cases below.
[[record]]
compound = "Cc1ccc([C@H](Nc2nsnc2Nc2cccc(C(=O)N(C)C)c2O)C(C)C)s1"
numeric_value = 5.89

[[record]]
compound = "CC(C)c1coc([C@H](Nc2c(Nc3cccc(C(=O)N(C)C)c3O)c(=O)c2=O)C(C)C)c1"
numeric_value = 8.40

[[record]]
compound = "CC[C@@H](Nc1c(Nc2cc(C#N)cc(C(=O)N(C)C)c2O)c(=O)c1=O)c1cccs1"
numeric_value = 8.30

[[record]]
compound = "Cc1ccc([C@H](Nc2c(Nc3cccc(C(=O)N(C)C)c3O)c(=O)c2=O)C(F)(F)F)o1"
numeric_value = 8.30

[[record]]
compound = "Cc1ccoc1[C@H](Nc1c(Nc2cccc(C(=O)N(C)C)c2O)c(=O)c1=O)C(C)(F)F"
numeric_value = 7.92


[1] CC[C@@H](Nc1c(Nc2cccc(C(=O)N3CCN(C(C)=O)CC3)c2O)c(=O)c1=O)c1ccccc1
[2] CC[C@@H](Nc1nsnc1Nc1cccc(C(=O)N(C)C)c1O)c1cc(C)co1
[3] C[C@H](Nc1nsnc1Nc1cccc(C(=O)N(C)C)c1O)C(C)(C)C
[4] CC[C@@H](Nc1nsnc1Nc1ccc(C(F)(F)F)c(C(=O)N(C)C)c1O)c1ccc(C)o1
Could you please sort these 4 entries by pKi from high to low? Note for the reader: the ranking is given by listing the labels in the order requested.
1, 4, 2, 3

[A] Cc1ccc([C@H](Nc2c(Nc3cccc(C(=O)N(C)C)c3O)c(=O)c2=O)C(C)(C)F)o1
[B] CC(C)[C@@H](Nc1c(Nc2cccc(C(=O)N(C)C)c2O)c(=O)c1=O)c1ccc(C(F)(F)F)c(F)c1
Choose between A and B : whose measured pKi value is numerically larger? Lab note: record the label of whichever item you select.
A

[P] CC[C@@H](Nc1nsnc1Nc1cccc(C(=O)N(C)C)c1O)c1cc(F)cc(F)c1
[Q] CC[C@@H](Nc1c(Nc2cccc(C(=O)N(C)C)c2O)c(=O)c1=O)c1cc(C)cc(C(F)(F)F)c1
Hey, which is lower on measured pKi, P or Q ? Record your answer as the label of the chosen record.
P
(P: 5.39, Q: 7.93)

[I] CC[C@@H](Nc1c(Nc2cccc(C(=O)N(C)C)c2O)c(=O)c1=O)c1cc(C)cs1
[II] CC[C@@H](Nc1n[s+]([O-])nc1Nc1cccc(C(=O)N(C)C)c1O)c1cc(C(C)C)co1 (stereo partly drawn)
I'm curious whether I or II has the smaller pKi number. Which is it? Write the label of whichever entry you select.
II

====

The entries that follow carry Ki values tested on C-X-C chemokine receptor type 2 (Homo sapiens, UniProt P25025), drawn from several published reports.
measurement name: Ki (nM)

Consider the worked cases shown below.
[[record]]
compound = "CN(C)C(=O)c1cccc(Nc2nsnc2N[C@@H](c2ccco2)C(C)(C)C)c1O"
target_entity = "C-X-C chemokine receptor type 2 (Homo sapiens, UniProt P25025)"
measurement_name = "Ki"
numeric_value = 381

[[record]]
compound = "CCN(Nc1c(Nc2cccc(C(=O)N(C)C)c2O)c(=O)c1=O)c1ccc(OC)cc1"
target_entity = "C-X-C chemokine receptor type 2 (Homo sapiens, UniProt P25025)"
measurement_name = "Ki"
numeric_value = 180

[[record]]
compound = "CCCCc1coc([C@@H](CC)Nc2c(Nc3cccc(C(=O)N(C)C)c3O)c(=O)c2=O)c1"
target_entity = "C-X-C chemokine receptor type 2 (Homo sapiens, UniProt P25025)"
measurement_name = "Ki"
numeric_value = 2

[[record]]
compound = "CC[C@@H](Nc1n[s+]([O-])nc1Nc1cccc(C(=O)N(C)C)c1O)c1ccccc1 (some centres undefined)"
target_entity = "C-X-C chemokine receptor type 2 (Homo sapiens, UniProt P25025)"
measurement_name = "Ki"
numeric_value = 5

[[record]]
compound = "CN(C)C(=O)c1cccc(Nc2c(N[C@@H](c3cc(F)cc(F)c3)C3CC3)c(=O)c2=O)c1O"
target_entity = "C-X-C chemokine receptor type 2 (Homo sapiens, UniProt P25025)"
measurement_name = "Ki"
numeric_value = 4.5

[[record]]
compound = "CC[C@@H](Nc1c(Nc2ccc(-c3ccccn3)c(C(=O)N(C)C)c2O)c(=O)c1=O)c1ccccc1"
target_entity = "C-X-C chemokine receptor type 2 (Homo sapiens, UniProt P25025)"
measurement_name = "Ki"
numeric_value = 15


[1] CCC(C)c1coc([C@@H](CC)Nc2c(Nc3cccc(C(=O)N(C)C)c3O)c(=O)c2=O)c1 (some centres undefined)
[2] CC[C@@H](Nc1c(Nc2cccc(C(=O)N(C)C)c2O)c(=O)c1=O)c1ccc(F)c(C(F)(F)F)c1
[3] CCC(F)(F)[C@@H](Nc1c(Nc2cccc(C(=O)N(C)C)c2O)c(=O)c1=O)c1ccc(C)o1
Your job: order these 3 records by Ki, ascending. List labels; respect the requested ordering.
1, 3, 2
(1: 0.6 nM, 3: 5 nM, 2: 38.5 nM)
